pKd reference
study.target: T1, C1r-CCP2-SP, recombinant autoactivated domain truncation of human C1r (human, UniProt P00736 375-703)
T1 sequence: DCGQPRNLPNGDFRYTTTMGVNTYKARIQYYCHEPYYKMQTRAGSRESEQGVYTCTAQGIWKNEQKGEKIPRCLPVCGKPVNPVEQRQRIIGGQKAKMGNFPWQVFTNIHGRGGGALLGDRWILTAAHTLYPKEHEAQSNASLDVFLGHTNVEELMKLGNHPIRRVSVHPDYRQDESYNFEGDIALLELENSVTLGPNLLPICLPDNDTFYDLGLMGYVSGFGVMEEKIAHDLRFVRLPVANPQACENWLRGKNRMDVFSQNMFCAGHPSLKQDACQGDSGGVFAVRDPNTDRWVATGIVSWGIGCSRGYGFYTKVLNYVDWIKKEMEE
assay.text: SPR
pKd: −log10 of the molar value.
property.label: pKd

binder: BBK32-C R248A (domain or fragment, B. burgdorferi B31, UniProt O50835 206-348, looked up) SNRYQSYLEGVKYNVDSAIQTITKIYNTYTLFSTKLTQMYSTALDNFAKAKAKEEAAKFTKEDLEKNFKTLLNYIQVSVKTAANFVYINDTHAKRKLENIEAEIKTLIAKIKEQSNLYEAYKAIVTSILLMRDSLKEVQGIID
property.label: pKd
observed.value: 8.24

binder: BBK32-C Y323A-E324A (domain or fragment, B. burgdorferi B31, UniProt O50835 206-348, looked up) SNRYQSYLEGVKYNVDSAIQTITKIYNTYTLFSTKLTQMYSTRLDNFAKAKAKEEAAKFTKEDLEKNFKTLLNYIQVSVKTAANFVYINDTHAKRKLENIEAEIKTLIAKIKEQSNLAAAYKAIVTSILLMRDSLKEVQGIID
property.label: pKd
observed.value: 6.32

binder: BBK32-C Y323A (domain or fragment, B. burgdorferi B31, UniProt O50835 206-348, looked up) SNRYQSYLEGVKYNVDSAIQTITKIYNTYTLFSTKLTQMYSTRLDNFAKAKAKEEAAKFTKEDLEKNFKTLLNYIQVSVKTAANFVYINDTHAKRKLENIEAEIKTLIAKIKEQSNLAEAYKAIVTSILLMRDSLKEVQGIID
property.label: pKd
observed.value: 9.06

binder: BBK32-C L236A (domain or fragment, B. burgdorferi B31, UniProt O50835 206-348, looked up) SNRYQSYLEGVKYNVDSAIQTITKIYNTYTAFSTKLTQMYSTRLDNFAKAKAKEEAAKFTKEDLEKNFKTLLNYIQVSVKTAANFVYINDTHAKRKLENIEAEIKTLIAKIKEQSNLYEAYKAIVTSILLMRDSLKEVQGIID
property.label: pKd
observed.value: 9.82
